- System: Salmonella enterica
- test-summary: Antimicrobial activity against Salmonella enterica ATCC 13076 assessed as reduction in microbial growth after 24 hrs by broth microdilution method
- Assay type: functional
measured-parameter: MIC (µM)
Answer in µM, number only, no unit symbol.

# count of solved cases: 3
              substance  unit_tag  value_reported
0  H-LNLKALLAVAKKIL-NH2        µM              32
1  H-LNLKALLKVAKKIL-NH2        µM              64
2  H-LNLKKLLKVAKKIL-NH2        µM              32

Field: next substance
Sample `H-LNLKKLLAVAKKIL-NH2` — what was its MIC?
64

###

- System: Staphylococcus aureus
- test-summary: Antimicrobial activity against Staphylococcus aureus ATCC 25923 assessed as reduction in microbial growth after 24 hrs by broth microdilution method
- Format: functional
The entries below are paired with their reported MIC.

As a guide, the following entries are already answered.
>>> print(df.to_string())
              substance  target_or_test_system  value_reported
0  H-LNLKKLLKVAKKIL-NH2  Staphylococcus aureus           32 µM
1  H-LNLKALLAVAKKIL-NH2  Staphylococcus aureus           32 µM
2  H-LNLKALLKVAKKIL-NH2  Staphylococcus aureus           32 µM

Lab note: next substance to report on.
Which MIC is listed for `H-LNLKKLLAVAKKIL-NH2` ?
64 µM

###

- Tested on: Erythrocyte
- test-summary: Hemolytic activity in human RBC assessed as hemolysis at 2 to 128 uM incubated for 30 mins
- Type: toxicity, cell-based
- condition-info: 0.5 h, dose 2-128 µM
measured-parameter: Activity

              substance  value_reported
0  H-LNLKALLKVAKKIL-NH2       Non-Toxic
1  H-LNLKKLLAVAKKIL-NH2       Non-Toxic
2  H-LNLKKLLKVAKKIL-NH2       Non-Toxic
3  H-LNLKALLAVAKKIL-NH2       Non-Toxic

###

- Tested on: Enterococcus faecalis
- test-summary: Antimicrobial activity against Enterococcus faecalis ATCC 29212 assessed as reduction in microbial growth after 24 hrs by broth microdilution method
- Type: functional
This listing pairs substances with measured MIC.
I only need the number, in µM, no unit after it.

Known MIC results, listed for orientation:
              substance  measured_parameter  unit_tag  value_reported
0  H-LNLKALLAVAKKIL-NH2                 MIC        µM               4
1  H-LNLKALLKVAKKIL-NH2                 MIC        µM               4

Query: MIC; subject: `H-LNLKKLLAVAKKIL-NH2`
8

What do you have for `H-LNLKKLLKVAKKIL-NH2` ?
4

Reference source for all entries: ChEMBL document CHEMBL5357020
